- Measurement Target: PIK3CA_C242 (Homo sapiens, UniProt P42336)
- Construct: endogenous in cells
- Sequence (P42336 whole entry): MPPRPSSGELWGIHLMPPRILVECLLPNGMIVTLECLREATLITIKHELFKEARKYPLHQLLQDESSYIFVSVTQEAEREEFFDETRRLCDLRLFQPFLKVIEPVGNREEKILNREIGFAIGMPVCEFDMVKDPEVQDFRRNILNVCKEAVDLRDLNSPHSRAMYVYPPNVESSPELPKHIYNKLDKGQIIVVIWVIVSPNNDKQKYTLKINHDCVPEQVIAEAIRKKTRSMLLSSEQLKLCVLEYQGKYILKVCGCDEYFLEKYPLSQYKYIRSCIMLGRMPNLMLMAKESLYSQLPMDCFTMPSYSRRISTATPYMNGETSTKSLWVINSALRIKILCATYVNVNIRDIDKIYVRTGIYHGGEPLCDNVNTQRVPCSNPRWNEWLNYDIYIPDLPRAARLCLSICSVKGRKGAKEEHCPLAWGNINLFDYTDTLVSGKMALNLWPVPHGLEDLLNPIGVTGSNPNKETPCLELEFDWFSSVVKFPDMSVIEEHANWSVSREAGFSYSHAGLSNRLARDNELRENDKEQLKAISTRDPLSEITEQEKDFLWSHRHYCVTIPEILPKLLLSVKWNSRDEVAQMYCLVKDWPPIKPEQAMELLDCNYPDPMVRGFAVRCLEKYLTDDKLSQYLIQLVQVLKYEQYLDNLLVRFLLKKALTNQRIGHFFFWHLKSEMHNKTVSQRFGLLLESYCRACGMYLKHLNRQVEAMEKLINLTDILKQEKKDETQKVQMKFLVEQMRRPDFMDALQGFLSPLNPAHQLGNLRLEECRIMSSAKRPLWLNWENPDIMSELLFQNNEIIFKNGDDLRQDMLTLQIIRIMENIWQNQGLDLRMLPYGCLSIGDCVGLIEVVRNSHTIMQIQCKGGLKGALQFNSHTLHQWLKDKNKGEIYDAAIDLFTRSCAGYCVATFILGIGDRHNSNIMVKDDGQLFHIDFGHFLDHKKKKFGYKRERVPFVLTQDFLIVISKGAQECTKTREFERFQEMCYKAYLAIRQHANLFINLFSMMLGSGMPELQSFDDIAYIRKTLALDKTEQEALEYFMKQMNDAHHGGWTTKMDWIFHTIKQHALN
- Sequence (P27986 whole entry partner): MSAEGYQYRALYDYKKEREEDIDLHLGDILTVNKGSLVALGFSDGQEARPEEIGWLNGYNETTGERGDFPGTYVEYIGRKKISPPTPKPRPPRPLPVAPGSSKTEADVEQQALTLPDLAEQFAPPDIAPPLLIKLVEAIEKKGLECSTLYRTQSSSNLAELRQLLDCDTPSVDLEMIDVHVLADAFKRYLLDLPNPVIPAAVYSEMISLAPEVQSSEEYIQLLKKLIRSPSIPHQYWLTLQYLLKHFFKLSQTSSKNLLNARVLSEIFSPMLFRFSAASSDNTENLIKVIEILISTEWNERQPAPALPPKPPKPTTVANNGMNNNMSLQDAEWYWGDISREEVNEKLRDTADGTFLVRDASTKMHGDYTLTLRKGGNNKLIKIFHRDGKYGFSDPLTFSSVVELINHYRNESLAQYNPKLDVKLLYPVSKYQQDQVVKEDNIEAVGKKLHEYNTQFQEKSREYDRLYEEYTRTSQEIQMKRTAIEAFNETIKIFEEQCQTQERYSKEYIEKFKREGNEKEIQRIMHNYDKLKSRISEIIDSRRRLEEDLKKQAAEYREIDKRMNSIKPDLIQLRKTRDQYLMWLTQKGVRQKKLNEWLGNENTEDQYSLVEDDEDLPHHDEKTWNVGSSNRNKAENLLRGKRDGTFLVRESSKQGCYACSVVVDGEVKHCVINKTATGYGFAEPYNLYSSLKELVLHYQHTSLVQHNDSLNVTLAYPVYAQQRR
- Assay Method Text: Proteomic TE50 (IA-DTB / TMT mass spectrometry) in Jurkat cell lysate
- Conditions Used: 1 hour at rt, 7-point dose response
Experimental Endpoint: IC50 (nM)

# annotated cases, reported IC50 shown
COc1ccc(Cl)c(-c2cc(Cl)ccc2S(=O)(=O)N2CCC(F)(C(=O)N[C@@H](C)/C=C\S(C)(=O)=O)CC2)c1 [Compound 16] ... 210
CN(C)c1ccc(S(=O)(=O)N2CCC(F)(C(=O)NC/C=C/S(C)(=O)=O)CC2)c(-c2ccccc2Cl)c1 [Compound 95] ... 100

P: C[C@@H](/C=C\S(C)(=O)=O)NC(=O)C1(F)CCN(S(=O)(=O)c2ccc(Cl)cc2-c2cccc(CCO)c2)CC1 [Compound 220]
Q: COc1ccc(S(=O)(=O)N2CCC(F)(C(=O)NC/C=C\C#N)CC2)c(-c2ccccc2Cl)c1 [Compound 71]
Q: Sorting ascending by IC50, which comes first: P or Q ? Pick one; state its label.
Ans: Q

---

- Measurement Target: PIK3CA_C242 (Homo sapiens)
- Construct: endogenous in cells
- Assay Method Text: Proteomic TE50 (IA-DTB / TMT mass spectrometry) in Jurkat cell lysate
- Conditions Used: 1 hour at rt, 7-point dose response
Experimental Endpoint: IC50 (µM)

Known results for molecules:
COc1ccc(S(=O)(=O)N2CCC(F)(C(=O)N[C@H](C)/C=C\S(C)(=O)=O)CC2)c(-c2ccccc2Cl)c1 [Compound 25] ... 0.238
CCCCCOc1cccc(-c2cc(Cl)ccc2S(=O)(=O)N2CCC(F)(C(=O)N[C@@H](C)/C=C\S(C)(=O)=O)CC2)c1 [Compound 262] ... 0.43

1: COc1ccc(S(=O)(=O)N2CCC(F)(C(=O)N[C@H](C)/C=C/C#N)CC2)c(-c2ccccc2Cl)c1 [Compound 229]
2: CCOc1ccc(S(=O)(=O)N2CCC(F)(C(=O)N[C@H](C)/C=C\S(C)(=O)=O)CC2)c(-c2ccccc2C)c1 [Compound 102]
Q: Looking at 1 and 2 , which one comes out lower in IC50 terms? Give the chosen item's label as your response.
Ans: 2
(2: 0.61 µM, 1: 0.97 µM)

---

- Measurement Target: PIK3CA (Homo sapiens, UniProt P42336)
- Construct: endogenous in cells
- Assay Method Text: In vitro ELISA target engagement assay for PIK3CA in Jurkat cellular lysate (competition with PIK3CA Biotin Probe)
- Conditions Used: 1 hour at rt, then 500 nM PIK3CA Biotin Probe, read-out: Elisa Target Engagement Assay (TE50)
Experimental Endpoint: IC50 (µM)

Check out these entries, answers already filled in.
COc1ccc(S(=O)(=O)N2CCC(F)(C(=O)N[C@H](C)/C=C\S(C)(=O)=O)CC2)c(-c2ccccc2Cl)c1 ... 0.29
C[C@H](/C=C\S(C)(=O)=O)NC(=O)C1(F)CCN(C(=O)[C@H]2CCN(CC(F)(F)F)C[C@@H]2c2ccccc2Cl)CC1 (single isomer, unassigned) ... 0.845
CC[C@H](/C=C/S(=O)(=O)C1CNC1)NC(=O)C1(F)CCN(S(=O)(=O)c2ccc(Br)cc2-c2ccccc2Cl)CC1 ... 0.129
C[C@@H]1C[C@](F)(C(=O)NC/C=C\C(=O)N2CC(F)(F)C2)CCN1S(=O)(=O)c1ccc(Br)cc1-c1ccccc1Cl ... 0.32

I: CC(C)(/C=C/C(=O)N1CC(F)(F)C1)NC(=O)C1(F)CCN(S(=O)(=O)c2ccc(C(F)(F)F)cc2-c2ccccc2Cl)CC1
II: C[C@@H]1C[C@](F)(C(=O)NC/C=C\C(=O)N2CC(F)(F)C2)CCN1S(=O)(=O)c1ccc(C(F)(F)F)cc1-c1ccccc1Cl
Q: Of the pair I and II , name the member with the lesser recorded IC50. # respond with the chosen item's label
Ans: I
(I: 0.62 µM, II: 1 µM)

P: C[C@H](/C=C\S(C)(=O)=O)NC(=O)C1(F)CCN(S(=O)(=O)c2ncc(Br)cc2-c2ccccc2Cl)CC1
Q: C[C@H](/C=C/C(=O)N1CC(F)(F)C1)NC(=O)[C@]1(F)CCN(S(=O)(=O)c2ccc(C(F)F)cc2-c2ccccc2Cl)[C@H](C)C1
Q: API: POST /compare with P and Q ; response names the item with higher IC50. Kindly give the label for the entry you pick.
Ans: P

I: C[C@H](/C=C\S(C)(=O)=O)NC(=O)[C@@]1(F)CCCN(C(=O)[C@H]2CN(CC(F)(F)F)C[C@H]2c2c(F)cccc2Cl)CC1
II: N#C/C=C/CNC(=O)C1(F)CCN(S(=O)(=O)c2cnc(Cl)cc2-c2ccccc2Cl)CC1
III: [2H]C([2H])([2H])Oc1ccc(S(=O)(=O)N2CC[C@@](F)(C(=O)N[C@H](C)/C=C/C(=O)N3CC(F)(F)C3)C[C@H]2C)c(-c2ccccc2Cl)c1
Q: Task for the reader: rank each entry by its IC50, from the minimum upward. The labels, placed in the requested order, form the answer.
Ans: I, III, II

---

- Measurement Target: PIK3CA (Homo sapiens)
- Construct: endogenous in cells
- Assay Method Text: In vitro ELISA target engagement assay for PIK3CA in Jurkat cellular lysate (competition with PIK3CA Biotin Probe)
- Conditions Used: 1 hour at rt, then 500 nM PIK3CA Biotin Probe, read-out: Elisa Target Engagement Assay (TE50)
Experimental Endpoint: IC50 (nM)

COc1ccc(S(=O)(=O)N2CCC(F)(C(=O)N[C@H](C)/C=C\S(C)(=O)=O)CC2)c(-c2ccccc2)c1 ... 1000

P: C[C@H](/C=C\S(C)(=O)=O)NC(=O)C1(F)CCN(S(=O)(=O)c2ccc(Br)cc2-c2cccc(Br)c2)CC1
Q: CCOc1ccc(S(=O)(=O)N2CC[C@@](F)(C(=O)N[C@H](C)/C=C\S(C)(=O)=O)C[C@H]2C)c(-c2ccccc2Cl)c1
Q: Hi, I'm comparing P with Q and wondering which one has the bigger number for IC50. Any idea? Please identify the chosen entry by its label.
Ans: P
(P: 850 nM, Q: 210 nM)

---

- Measurement Target: PIK3CA_C242 (Homo sapiens)
- Construct: endogenous in cells
- Assay Method Text: Proteomic TE50 (IA-DTB / TMT mass spectrometry) in Jurkat cell lysate
- Conditions Used: 1 hour at rt, 7-point dose response
- Method: Example 4. […] TMT quantitation was performed with a filter requiring at least ten summed signal-to-noise (S/N) for control channels. TE50 values were calculated from 7-point dose response curves created using the reporter ion S/N for each channel.
Experimental Endpoint: IC50 (nM)

Look over these answered cases.
C[C@H](/C=C\S(C)(=O)=O)NC(=O)C1(F)CCN(S(=O)(=O)c2cn(C)c(=O)cc2-c2ccccc2Cl)CC1 ... 570
Cc1ccccc1-c1cc(N2CCC2)ccc1S(=O)(=O)N1CCC(F)(C(=O)N[C@H](C)/C=C\S(C)(=O)=O)CC1 ... 261
C[C@H](/C=C\S(C)(=O)=O)NC(=O)C1(F)CCN(C(=O)[C@@H]2CN(C(=O)OC(C)(C)C)C[C@@H]2c2ccccc2Cl)CC1 (racemic) ... 895

A: COc1ccc(S(=O)(=O)N2CCC(F)(C(=O)N[C@@H](C)/C=C\S(C)(=O)=O)CC2)c(-c2cccc(Cl)c2)c1
B: C[C@H](/C=C\S(C)(=O)=O)NC(=O)C1(F)CCN(S(=O)(=O)c2ccc(N3CCCC3)cc2-c2ccccc2Cl)CC1
C: COc1ccc(S(=O)(=O)N2CCC(F)(C(=O)N[C@H](C)/C=C\S(C)(=O)=O)CC2)c(-c2ccccc2)c1
Q: Provide the items ranked by increasing IC50. Your task in answering is to list the labels in the requested order.
Ans: A, B, C

---

- System: pAKT(S473) in H358 cell line
- Assay Method Text: In vitro Phospho-AKT(S473) HTRF analysis in H358 cells
- Assay type: cell-based
- Conditions Used: Homo sapiens, NCI-H358, 0.5 h; H358 cells, 30 minutes at 37° C.
Experimental Endpoint: IC50 (µM)

C[C@H](/C=C\S(C)(=O)=O)NC(=O)[C@@]1(F)CCCN(C(=O)[C@H]2CN(CC(F)(F)F)C[C@H]2c2cccc(F)c2F)CC1 (single isomer, unassigned) ... 0.464

a: C[C@H](/C=C/S(C)(=O)=O)NC(=O)[C@@]1(F)CCCN(C(=O)[C@H]2CN(CC(F)(F)F)C[C@H]2c2c(F)cccc2Cl)CC1
b: C[C@H](/C=C\S(C)(=O)=O)NC(=O)[C@@]1(F)CCCN(C(=O)[C@@H]2CN(CC(F)(F)F)C[C@@H]2c2c(F)cc(F)cc2Cl)CC1 (single isomer, unassigned)
Q: Which value of IC50 is smaller, the one for a or the one for b ? // caller expects the label of the chosen entry
Ans: b

---

- Measurement Target: PIK3CA (Homo sapiens)
- Construct: endogenous in cells
- Assay Method Text: In vitro ELISA target engagement assay for PIK3CA in Jurkat cellular lysate (competition with PIK3CA Biotin Probe)
- Conditions Used: 1 hour at rt, then 500 nM PIK3CA Biotin Probe, read-out: Elisa Target Engagement Assay (TE50)
pIC50: −log10 of the molar value.
Experimental Endpoint: pIC50

I: Cc1ccccc1-c1cc(Br)ccc1S(=O)(=O)N1CCC(F)(C(=O)N[C@H](C)/C=C\S(C)(=O)=O)CC1 [Compound 49]
II: C[C@H](/C=C\S(C)(=O)=O)NC(=O)[C@]1(F)CCN(S(=O)(=O)c2ccc(Br)cc2-c2cccc(Cl)c2)[C@H](C)C1 [Compound 145]
III: C[C@H](/C=C\S(C)(=O)=O)NC(=O)C1(F)CCN(S(=O)(=O)c2ccc(N3CCCC3)cc2-c2ccc(F)cc2Cl)CC1 [Compound 123]
Q: Sort low-to-high on pIC50, please. Note for the reader: the ranking is given by listing the labels in the order requested.
Ans: III, II, I
(III: 6.09, II: 6.57, I: 6.90)
